# experimental.details: 1 mg/kg was administered intravenously in anesthetized rats and the concentration in plasma was determined after 120 minutes.
# run.conditions: rat, iv
result.type: concentration at 2 h

INSERT INTO results (chemical_string, readout_value) VALUES
  ('CC(=O)N1CCN(C(=O)[C@@H](Cc2cccc(C(=N)N)c2)NS(=O)(=O)c2ccc3ccccc3c2)CC1', '90 ng/mL');

====

# experimental.details: 1 mg/kg was administered intravenously in anesthetized rats and the concentration in plasma was determined after 30 minutes.
# run.conditions: rat, iv
result.type: concentration at 0.5 h (ng/mL)

INSERT INTO results (chemical_string, readout_value) VALUES
  ('CC(=O)N1CCN(C(=O)[C@@H](Cc2cccc(C(=N)N)c2)NS(=O)(=O)c2ccc3ccccc3c2)CC1', 270);

====

# experimental.details: 50 mg/kg was administered orally in anesthetized rats and the concentration in plasma was determined after 120 minutes.
# run.conditions: rat, po
result.type: concentration at 2 h (ng/mL)

INSERT INTO results (chemical_string, result_unit, readout_value) VALUES
  ('CC(=O)N1CCN(C(=O)[C@@H](Cc2cccc(C(=N)N)c2)NS(=O)(=O)c2ccc3ccccc3c2)CC1', 'ng/mL', 260);

====

Here the recorded pKi is given for each entry.
# tested.system: Plasminogen (Homo sapiens, UniProt P00747)
# Sequence (P00747 97-580 limits assumed): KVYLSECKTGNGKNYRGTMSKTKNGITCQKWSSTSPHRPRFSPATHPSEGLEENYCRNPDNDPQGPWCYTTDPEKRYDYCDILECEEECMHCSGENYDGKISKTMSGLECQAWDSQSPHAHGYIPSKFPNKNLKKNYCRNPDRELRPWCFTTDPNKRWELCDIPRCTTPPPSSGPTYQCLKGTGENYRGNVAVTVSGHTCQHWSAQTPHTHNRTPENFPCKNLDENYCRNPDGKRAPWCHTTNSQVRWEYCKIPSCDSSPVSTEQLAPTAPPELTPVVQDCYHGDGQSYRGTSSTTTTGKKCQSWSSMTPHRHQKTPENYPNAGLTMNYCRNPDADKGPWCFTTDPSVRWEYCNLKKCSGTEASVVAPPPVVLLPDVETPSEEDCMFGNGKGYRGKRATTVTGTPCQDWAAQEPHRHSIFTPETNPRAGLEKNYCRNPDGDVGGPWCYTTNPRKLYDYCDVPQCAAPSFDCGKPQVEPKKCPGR
# Sequence (P00747 581-810 limits assumed): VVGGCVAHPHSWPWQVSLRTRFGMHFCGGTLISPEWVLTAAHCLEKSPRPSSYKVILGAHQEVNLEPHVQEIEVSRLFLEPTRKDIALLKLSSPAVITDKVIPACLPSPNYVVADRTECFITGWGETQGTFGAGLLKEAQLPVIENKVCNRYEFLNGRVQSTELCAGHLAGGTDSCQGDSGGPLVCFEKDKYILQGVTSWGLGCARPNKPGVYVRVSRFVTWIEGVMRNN
# experimental.details: Inhibitory activity against plasmin
pKi: −log10 of the molar value.
result.type: pKi

INSERT INTO assay_data (molecule, readout_value) VALUES
  ('CN1CCN(C(=O)C(Cc2cccc(C(=N)N)c2)NS(=O)(=O)c2ccc3ccccc3c2)CC1 (stereo not drawn)', 4.26),
  ('CCCCS(=O)(=O)N1CCN(C(=O)C(Cc2cccc(C(=N)N)c2)NS(=O)(=O)c2ccc3ccccc3c2)CC1 (stereo not drawn)', 4.96),
  ('CC(C)c1cc(C(C)C)c(S(=O)(=O)NC(Cc2cccc(C(=N)N)c2)C(=O)N2CCN(S(C)(=O)=O)CC2)c(C(C)C)c1 (stereo not drawn)', 5.19),
  ('N=C(N)c1cccc(CC(NS(=O)(=O)c2ccc3ccccc3c2)C(=O)N2CCN(C(=O)Oc3ccccc3)CC2)c1 (stereo not drawn)', 5.64),
  ('CCOC(=O)N1CCN(C(=O)C(Cc2cccc(C(=N)N)c2)NS(=O)(=O)c2ccc3ccccc3c2)CC1 (stereo not drawn)', 5.60),
  ('N=C(N)c1cccc(CC(NS(=O)(=O)c2ccc3ccccc3c2)C(=O)N2CCN(c3ccccc3)CC2)c1 (stereo not drawn)', 5.59),
  ('CC(C)(C)c1ccc(S(=O)(=O)NC(Cc2cccc(C(=N)N)c2)C(=O)N2CCN(S(C)(=O)=O)CC2)cc1 (stereo not drawn)', 4.85),
  ('N=C(N)c1cccc(CC(NS(=O)(=O)c2ccc3ccccc3c2)C(=O)N2CCN(C(=O)c3ccc4ccccc4c3)CC2)c1 (stereo not drawn)', 5.52);

====

# experimental.details: 1 mg/kg was administered intravenously in anesthetized rats and the concentration in plasma was determined after 90 minutes.
# run.conditions: rat, iv
result.type: concentration at 1.5 h (ng/mL)

INSERT INTO assay_data (chemical_string, result_type, readout_value) VALUES
  ('CC(=O)N1CCN(C(=O)[C@@H](Cc2cccc(C(=N)N)c2)NS(=O)(=O)c2ccc3ccccc3c2)CC1', 'concentration at 1.5 h', 100);
